Data provenance: PubChem BioAssay (NCI)

Below: a set of entries, each annotated with reported TGI.
Tested on: SK-OV-3 ovarian
Test: NCI tumour cell line growth inhibition, 48 h

MOLECULE: CN1c2ccccc2S(=O)(=O)n2c(CCc3ccccc3)nnc21
TARGET_OR_SYSTEM: SK-OV-3 ovarian
TGI: > 100 µM

MOLECULE: COc1cc(C2c3cc4c(cc3[C@@H](N(C)C)[C@H]3COC(=O)C23)OCO4)cc(OC)c1O (some centres undefined)
TARGET_OR_SYSTEM: SK-OV-3 ovarian
TGI: > 100 µM

MOLECULE: CSc1nsc(S/C=C\C(=O)c2ccc(C)cc2)n1
TARGET_OR_SYSTEM: SK-OV-3 ovarian
TGI: > 100 µM

MOLECULE: CC(=O)c1cccc(-c2cccc(-c3ccn(CCN4CCOCC4)n3)c2)c1
TARGET_OR_SYSTEM: SK-OV-3 ovarian
TGI: > 20 µM

MOLECULE: CCC[CH2][Sn]1([CH2]CCC)[O]C(=O)c2ccc(N)cc2[O]1
TARGET_OR_SYSTEM: SK-OV-3 ovarian
TGI: 2.92 µM

MOLECULE: CC1(C)C(=O)C=CC2(C)C1CC(O)C1(C)C2CCC2(C)C(c3ccoc3)OC(=O)C3OC321 (centres undefined)
TARGET_OR_SYSTEM: SK-OV-3 ovarian
TGI: > 100 µM

MOLECULE: O=C(CSc1nc(-c2ccccc2)c(-c2ccccc2)[nH]1)NNC(=S)Nc1ccccc1
TARGET_OR_SYSTEM: SK-OV-3 ovarian
TGI: > 100 µM

MOLECULE: Cc1nc2c(n1-c1ccccc1)C(=O)c1ccccc1C2=O
TARGET_OR_SYSTEM: SK-OV-3 ovarian
TGI: > 100 µM

MOLECULE: COc1cc2c3c(c1OC)C1(C=CC(=O)C=C1)CC3NCC2 (centres undefined)
TARGET_OR_SYSTEM: SK-OV-3 ovarian
TGI: > 100 µM

* * *

Test system: SK-MEL-5 melanoma
Assay: NCI tumour cell line growth inhibition, 48 h

COMPOUND: C/C(=N/NC(=S)N1CCN(C(=S)N/N=C(/C)c2ccccn2)CC1)c1ccccn1
TGI: > 80.7 µM
//
COMPOUND: COC(=O)C(=O)C(C(=O)C(N)=O)c1nc2ccc(C(=O)c3ccccc3)cc2[nH]c1=O (stereo not drawn)
TGI: > 100 µM
//
COMPOUND: C=C(CCOC)CCC1CCCCC(=C)[C@H]1O (stereo partly drawn)
TGI: > 100 µM
//
COMPOUND: COc1cc2c(cc1OC)C(=O)/C(=C/c1ccc(O)cc1)CC2
TGI: > 10 µM
//
COMPOUND: O=P(O)(O)C=C=C1CCCCC1
TGI: > 100 µM
//
COMPOUND: O=c1nc2ccc3sc4ccccc4c(=O)c3n2c(=O)[nH]1
TGI: > 100 µM
//
COMPOUND: Cc1nn(CNc2ccccc2C(F)(F)F)c(=S)n1/N=C/c1ccc(F)cc1
TGI: > 100 µM
//
COMPOUND: CC(C#N)N(CCc1ccccc1)C(=O)c1ccccc1 (stereo not drawn)
TGI: > 100 µM
//
COMPOUND: N#Cc1c(N2CCN(c3ccc([N+](=O)[O-])cc3)CC2)[n+](=O)c2ccc(-c3ccc([N+](=O)[O-])cc3)cc2n1[O-]
TGI: 17.5 µM
//
COMPOUND: CCCCN(CCCC)CCc1c(C)cc(C)c(CCN(CCCC)CCCC)c1O
TGI: 4.1 µM
//
COMPOUND: O=C(Nc1ccc(Br)cc1)Nc1nn(C(=O)Nc2ccc(Br)cc2)c2ccccc12
TGI: > 100 µM
//
COMPOUND: CNCCNc1nc2ccccc2c2c(=O)c3cc(F)ccc3sc12
TGI: 3.34 µM
//
COMPOUND: Cc1nc(Nc2nc3ccccc3[nH]2)nc(Cl)c1CCCl
TGI: > 100 µM
//
COMPOUND: COc1nc(C)cc2c(=O)n(-c3ccccc3)n(CC(O)CN3CCN(c4ccc(Cl)cc4)CC3)c(=O)c12 (stereo not drawn)
TGI: > 50 µM
//
COMPOUND: Cc1ccc2sc3ccc(N)cc3c(=O)c2c1
TGI: > 100 µM
//
COMPOUND: CCN(CC)CCOc1c(OC)c(Br)cc2c(C)c(C(=O)OC)oc12
TGI: 1.53 µM
//
COMPOUND: C/C=C(/C)c1cnc(CC(C)C)c(=O)[nH]1
TGI: > 100 µM
//
COMPOUND: COc1cc(C)cc2c(-c3c(O)cc(O)c4c3C[C@H](C)N[C@H]4C)cc(-c3cc(-c4c(O)cc(O)c5c4C[C@H](C)N[C@H]5C)c4cc(C)cc(OC)c4c3O)c(O)c12
TGI: > 100 µM

* * *

Below: a set of entries, each annotated with reported TGI.
System: COLO 205 colon
Test: NCI tumour cell line growth inhibition, 48 h
PROPERTY_MEASURED: TGI

COMPOUND: CC1(C)C=[N+]([O-])C(C)(C)N1O
PROPERTY_MEASURED: TGI
RESULT: > 10 µM

COMPOUND: CC(C(=O)O)c1ccc(-c2ccccc2)c(F)c1 (stereo unspecified)
PROPERTY_MEASURED: TGI
RESULT: > 100 µM

COMPOUND: O=NN1CCCS1(=O)=O
PROPERTY_MEASURED: TGI
RESULT: > 100 µM

COMPOUND: COc1cc(S(=O)(=O)Nc2ccc(-c3csc(/N=C\c4ccccc4)n3)cc2)ccc1Cl
PROPERTY_MEASURED: TGI
RESULT: > 100 µM

COMPOUND: C/C(=N/NC(=S)N1CCN(C(=S)N/N=C(/C)c2ccccn2)CC1)c1ccccn1
PROPERTY_MEASURED: TGI
RESULT: > 100 µM

COMPOUND: CCOC(=O)C1=C(Nc2ccc(Cl)c(Cl)c2)OC/C1=N\NC(=O)Cc1ccccc1
PROPERTY_MEASURED: TGI
RESULT: > 100 µM

* * *

System: EKVX NSCLC
Test: NCI tumour cell line growth inhibition, 48 h
PROPERTY_MEASURED: TGI

SMILES_TEXT: Cn1c2ccc(C3=NCCN3)cc2c2cc(C3=NCCN3)ccc21
PROPERTY_MEASURED: TGI
RESULT: > 100 µM
//
SMILES_TEXT: COC(=O)c1ccc(CN2C(=O)C(Cl)=C(Nc3ccc(OC)c(Cl)c3)C2=O)cc1
PROPERTY_MEASURED: TGI
RESULT: > 50 µM
//
SMILES_TEXT: O=C1c2ccccc2C(=O)c2nn(N=P(CP(=Nn3nc4c(n3)C(=O)c3ccccc3C4=O)(c3ccccc3)c3ccccc3)(c3ccccc3)c3ccccc3)nc21
PROPERTY_MEASURED: TGI
RESULT: > 100 µM

* * *

System: NCI-H460 lung
Test: NCI tumour cell line growth inhibition, 48 h
PROPERTY_MEASURED: log10(TGI) (log10 of the value in µM)

SMILES_TEXT: CCCCN(CC)c1ncnc2ccc(Br)cc12
TARGET_OR_SYSTEM: NCI-H460 lung
PROPERTY_MEASURED: log10(TGI)
MEASURED_NUMBER: 1.72
//
SMILES_TEXT: C=C(C)[C@@H]1CC[C@]2(CO)CC[C@]3(C)[C@H](CC[C@@H]4[C@@](C)(CCCN)[C@H](C(=C)C)CC[C@]43C)[C@@H]12
TARGET_OR_SYSTEM: NCI-H460 lung
PROPERTY_MEASURED: log10(TGI)
MEASURED_NUMBER: 0.51
//
SMILES_TEXT: C[C@]12CC[C@H]3[C@@H](CC[C@]4(O)C[C@@H](O)CC[C@]34CO)[C@@]1(O)CC[C@@H]2C1=CC(=O)OC1
TARGET_OR_SYSTEM: NCI-H460 lung
PROPERTY_MEASURED: log10(TGI)
MEASURED_NUMBER: 0.26
//
SMILES_TEXT: COc1cc(/C=C2\CN(C(=O)CCN3CCC(=NO)CC3)C/C(=C\c3cc(OC)c(OC)c(OC)c3)C2=O)cc(OC)c1OC
TARGET_OR_SYSTEM: NCI-H460 lung
PROPERTY_MEASURED: log10(TGI)
MEASURED_NUMBER: -0.07
//
SMILES_TEXT: C/C(=C(/c1ccc(O)cc1)c1ccc(Cl)cc1)c1ccccc1
TARGET_OR_SYSTEM: NCI-H460 lung
PROPERTY_MEASURED: log10(TGI)
MEASURED_NUMBER: -0.02
//
SMILES_TEXT: CNCCNc1nc2ccccc2c2c(=O)c3cc(F)ccc3sc12
TARGET_OR_SYSTEM: NCI-H460 lung
PROPERTY_MEASURED: log10(TGI)
MEASURED_NUMBER: 0.52
